# Test system: RARa:RXR (NR concentration 270 nM, RXRa partner concentration 90 nM)
# procedure summary: PBM binding z-score (relative to random genomic background probes); higher = stronger binding; sequences stand for … in GC…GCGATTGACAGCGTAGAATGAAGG
readout name: PBM binding z-score
Respond with the number and no other words.

Before answering, review these 5 worked examples.
- TCTTGTAGTTCAAGCAGGTTAAGAAAGCCTGAGT: 1.59
- GTACCAAGGTGAATAGGTCCTTGATGAGTAGGCG: 0.337
- GCATATAGGTATTACAAGGTGAAAGTCCGATTGT: 1.69
- CCTAGTTGGTAAGGAGGTCACACACCGGATATGA: 4.14
- GGAACGAGGGCAAAGTTGATAACATCTGTCGACG: 1.49

Kindly note the recorded PBM binding z-score for "TCATATATGTAAATGCTAGGTGAAAGTCCGATCT" , which is 0.644

GET /value?item= "ATACCAACGTGATCGTGAGGTCGTTGATACTAAC" &field=PBM binding z-score returns 1.23

Please fill in: PBM binding z-score reported for "CGTCAAAGTTCAAGGTAACGTAACAGAAAGCAGC" = 3.28

The reported value for "TCTTGTAGATCTAAGGTTAAGAAAGCCGAAGCCT" in terms of PBM binding z-score is 1.55

Given item "CCTACTGGGCCAAAAACGTCATTGATGCCGATAA" , the value recorded as its PBM binding z-score is -0.17

What the record says about "TCAGACAGATGAAGGTAACTCAGGTACGCAGTCG" : PBM binding z-score is 0.684

Sample "TCCATTAGTTGATTAGGGCAACCGAAACAGCGGA" ; PBM binding z-score observed: 0.689
